Attribution: the supplement of paper PMC10307832

- System: LC-2-ad
- test_description: relative viability (nuclei count vs DMSO), 5 days (fraction); higher = more cells survive
- setup_conditions: first compound 0.005 µM
Reported relative viability by item:
Simply state the number, no unit and no words.

Below, each entry is followed by its recorded relative viability result.
COc1cc2nccc(Oc3ccc(NC(=O)Nc4cc(C)on4)c(Cl)c3)c2cc1OC [Tivozanib] + O=C(CCCCCCC(=O)Nc1ccccc1)NO [Vorinostat] (partner 1 µM) | 0.704
COc1cc2nccc(Oc3ccc(NC(=O)Nc4cc(C)on4)c(Cl)c3)c2cc1OC [Tivozanib] + CS(=O)(=O)CCNCc1ccc(-c2ccc3ncnc(Nc4ccc(OCc5cccc(F)c5)c(Cl)c4)c3c2)o1 [Lapatinib] (partner 2 µM) | 0.959
Nc1ccn([C@@H]2O[C@H](CO)[C@@H](O)[C@@H]2O)c(=O)n1 [Cytarabine] + CS(=O)(=O)N1CCN(Cc2cc3nc(-c4cccc5[nH]ncc45)nc(N4CCOCC4)c3s2)CC1 [Pictilisib] (partner 1 µM) | 0.402
Nc1ccn([C@@H]2O[C@H](CO)[C@@H](O)[C@@H]2O)c(=O)n1 [Cytarabine] + CS(=O)(=O)CCNCc1ccc(-c2ccc3ncnc(Nc4ccc(OCc5cccc(F)c5)c(Cl)c4)c3c2)o1 [Lapatinib] (partner 2 µM) | 0.878
Nc1ccn([C@@H]2O[C@H](CO)[C@@H](O)[C@@H]2O)c(=O)n1 [Cytarabine] + Cc1nc(Nc2ncc(C(=O)Nc3c(C)cccc3Cl)s2)cc(N2CCN(CCO)CC2)n1 [Dasatinib] (partner 0.075 µM) | 0.358
Nc1ccn([C@@H]2O[C@H](CO)[C@@H](O)[C@@H]2O)c(=O)n1 [Cytarabine] + Cc1cc(Nc2cc(N3CCN(C)CC3)nc(Sc3ccc(NC(=O)C4CC4)cc3)n2)n[nH]1 [Tozasertib] (partner 0.1 µM) | 0.415

// relative viability (LC-2-ad) for Nc1ccn([C@@H]2O[C@H](CO)[C@@H](O)[C@@H]2O)c(=O)n1 [Cytarabine] + COc1cccc2cc(-c3nc([C@H]4CC[C@H](C(=O)O)CC4)n4ncnc(N)c34)[nH]c12 [OSI-027] (partner 0.5 µM) = 0.734

Bench note, LC-2-ad: entry Nc1ccn([C@@H]2O[C@H](CO)[C@@H](O)[C@@H]2O)c(=O)n1 [Cytarabine] + O=C(CCCCCCC(=O)Nc1ccccc1)NO [Vorinostat] (partner 1 µM) , its relative viability = 0.766

====

# maps each entry to its relative viability
- Test system: NCI-H838
- test_description: relative viability (nuclei count vs DMSO), 5 days (fraction); higher = more cells survive
- setup_conditions: first compound 0.01581 µM
Form rule: numeric answer, no unit written next to it.

Nc1ccn([C@@H]2O[C@H](CO)[C@@H](O)[C@@H]2O)c(=O)n1 [Cytarabine] + Nc1nc2[nH]cc(CCc3ccc(C(=O)N[C@@H](CCC(=O)O)C(=O)O)cc3)c2c(=O)[nH]1 [Pemetrexed] (partner 0.2 µM) | 0.235

Notebook: Nc1ccn([C@@H]2O[C@H](CO)[C@@H](O)[C@@H]2O)c(=O)n1 [Cytarabine] + C[C@@H](Oc1cc(-c2cnn(C3CCNCC3)c2)cnc1N)c1c(Cl)ccc(F)c1Cl [Crizotinib] (partner 1 µM) , relative viability read as 0.877

For this compound ( COc1cc2nccc(Oc3ccc(NC(=O)Nc4cc(C)on4)c(Cl)c3)c2cc1OC [Tivozanib] + COc1cccc2cc(-c3nc([C@H]4CC[C@H](C(=O)O)CC4)n4ncnc(N)c34)[nH]c12 [OSI-027] (partner 0.5 µM) ), measured relative viability is 0.404

For record COc1cc2nccc(Oc3ccc(NC(=O)Nc4cc(C)on4)c(Cl)c3)c2cc1OC [Tivozanib] + O=C(c1cc(Cc2n[nH]c(=O)c3ccccc23)ccc1F)N1CCN(C(=O)C2CC2)CC1 [Olaparib] (partner 8 µM) the listed relative viability is 0.785
